Data provenance: PubChem BioAssay (NCI)

System: NCI-H226 lung
Assay: NCI tumour cell line growth inhibition, 48 h
REPORTED_METRIC: TGI (µM)
Kindly answer with a numeric value in µM, unit omitted.

Example results:
{"columns": ["MOLECULE_SMILES", "TGI (µM)"],
 "data": [
  ["OCSc1nn(CO)c(=S)s1", 92.9],
  ["CCCCP(CCCC)(CCCC)=C(C(=O)OC)C(C(=O)OC)=C1SC(C(=O)OC)=C(C(=O)OC)S1", 45],
  ["C[C@@]1(N2C(=O)OC[C@@H]2c2ccccc2)C(=O)N([C@H](CC(=O)N2CCC(N3CCCCC3)CC2)C(=O)NCc2cccc(C(F)(F)F)c2)[C@@H]1/C=C/c1ccccc1", 39.7]
]}

Please report TGI for the following compound: C=C(CN1CCN(c2cccc(F)c2)CC1)c1ccc(C(=O)Nc2ccccc2N)cc1 35.2

Please report TGI for the following compound: CC(C)Oc1ccc(C(=O)N[C@H](CNC(=O)CN(C)C)Cc2ccc(-c3cn4cccc([C@H](C)O)c4n3)cc2)cc1Cl 28.8
